The reported measurements were obtained from ChEMBL document CHEMBL2177019.

Give Activity for every item shown.
# System: H9c2
# Assay notes: Prevention of apoptosis in rat H9c2 cells assessed as protection against oxidative stress-induced cytotoxicity at 100 nM […] by Alamar blue assay
# Type: functional
The answer is to be given in %; state only the numeric part.

Prompt line: Requested field: Activity. Item: COC(=O)CCC1CNc2cc(OC(=O)N(C)c3ccc(OC)cc3)ccc21.Cl (stereo not drawn)
Response line: 43.8

Prompt line: How about CN(C)C(=O)Oc1cccc2c1CCN2.Cl ?
Response line: 46.8

Prompt line: Likewise for CCCCN(C)C(=O)Oc1ccc2c(CCC(=O)OC)c[nH]c2c1 ?
Response line: 28.8

====

# Assayed target: Acetylcholinesterase (Bos taurus)
# Sequence (P23795 whole entry): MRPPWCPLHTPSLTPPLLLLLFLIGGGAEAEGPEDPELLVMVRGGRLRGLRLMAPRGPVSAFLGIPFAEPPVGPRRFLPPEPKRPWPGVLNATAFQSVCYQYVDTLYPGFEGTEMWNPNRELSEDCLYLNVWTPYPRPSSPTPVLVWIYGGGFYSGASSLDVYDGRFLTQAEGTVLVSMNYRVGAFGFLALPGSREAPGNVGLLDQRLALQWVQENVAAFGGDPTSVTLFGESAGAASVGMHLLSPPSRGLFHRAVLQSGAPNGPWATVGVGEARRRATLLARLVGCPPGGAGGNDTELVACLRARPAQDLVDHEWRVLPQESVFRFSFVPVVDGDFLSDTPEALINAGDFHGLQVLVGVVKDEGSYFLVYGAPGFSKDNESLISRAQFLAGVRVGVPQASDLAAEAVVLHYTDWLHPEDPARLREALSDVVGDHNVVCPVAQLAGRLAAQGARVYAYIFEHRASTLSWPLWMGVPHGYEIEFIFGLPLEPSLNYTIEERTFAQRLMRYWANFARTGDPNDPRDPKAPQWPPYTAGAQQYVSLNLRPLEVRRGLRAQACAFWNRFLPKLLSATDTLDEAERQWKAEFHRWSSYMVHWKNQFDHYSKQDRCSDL
Would you kindly list IC50 for each of these compounds?
API: value field is a number in µM; no unit string.

Prompt line: Request the reported IC50 associated with COc1ccc(N(C)C(=O)Oc2cccc3c2C(CCC(=O)O)CN3C)cc1 (stereo unspecified)
Response line: 125

Prompt line: Next up: CCN(C)C(=O)Oc1cccc2c1C(CCC(=O)OC)CN2C (stereo unspecified)
Response line: 58.7

Prompt line: Try this compound next: CCN(C)C(=O)Oc1cccc2c1C(CCC(=O)O)CN2C.Cl (stereo unspecified)
Response line: 124

Prompt line: Request: C#CCN[C@@H]1CCc2ccc(OC(=O)N(C)CC)cc21 [LADOSTIGIL]
Response line: 30.3

Prompt line: Same for COC(=O)CCC1CNc2cccc(OC(=O)N(C)c3ccc(OC)cc3)c21.Cl (stereo unspecified)
Response line: 1.2

Prompt line: Same again, this time with COC(=O)CCC1CN(C)c2cccc(OC(=O)N(C)c3ccc(OC)cc3)c21 (stereo unspecified)
Response line: 246

Prompt line: Param item: CCN(C)C(=O)Oc1cccc2[nH]cc(CCC(=O)OC)c12
Response line: 19.6

Prompt line: Then what about the compound CCN(C)C(=O)Oc1cccc2c1C(CCC(N)=O)CN2.Cl (stereo unspecified) ?
Response line: 62

Prompt line: Please answer likewise for CCCCN(C)C(=O)Oc1ccc2c(c1)NCC2CCC(=O)OC.Cl (stereo unspecified)
Response line: 62.3

Prompt line: Can you check CCN(C)C(=O)Oc1ccc2c(c1)NCC2CCC(=O)OC.Cl (stereo unspecified) next?
Response line: 55.2
